Recorded residual activity, one value per entry.
Target: Solute carrier organic anion transporter family member 1B3 (Homo sapiens, UniProt Q9NPD5)
Sequence (Q9NPD5 whole entry): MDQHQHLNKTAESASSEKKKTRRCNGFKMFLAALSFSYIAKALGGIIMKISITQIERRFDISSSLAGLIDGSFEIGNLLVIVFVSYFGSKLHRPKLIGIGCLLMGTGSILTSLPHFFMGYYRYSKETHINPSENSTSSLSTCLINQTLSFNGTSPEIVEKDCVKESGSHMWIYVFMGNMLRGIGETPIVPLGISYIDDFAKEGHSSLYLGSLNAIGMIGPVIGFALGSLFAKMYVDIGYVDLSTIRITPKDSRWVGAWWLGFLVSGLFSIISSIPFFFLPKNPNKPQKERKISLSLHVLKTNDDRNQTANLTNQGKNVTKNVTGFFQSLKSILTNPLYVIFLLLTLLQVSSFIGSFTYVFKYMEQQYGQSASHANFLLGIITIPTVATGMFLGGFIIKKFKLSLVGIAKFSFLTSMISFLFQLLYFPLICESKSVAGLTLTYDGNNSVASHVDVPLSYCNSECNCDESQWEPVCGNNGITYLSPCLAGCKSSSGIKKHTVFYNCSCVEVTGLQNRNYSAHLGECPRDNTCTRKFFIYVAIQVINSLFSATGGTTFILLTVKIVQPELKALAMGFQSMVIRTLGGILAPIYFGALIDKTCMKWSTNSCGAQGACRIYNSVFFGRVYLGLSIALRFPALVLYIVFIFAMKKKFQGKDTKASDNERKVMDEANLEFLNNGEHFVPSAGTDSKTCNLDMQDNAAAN
Conditions: chinese hamster, cho, 10 µM

Compound | System Name | Unit Abbreviation | residual activity
Cc1ccc(-c2cc(C(F)(F)F)nn2-c2ccc(S(N)(=O)=O)cc2)cc1 [CELECOXIB] | Solute carrier organic anion transporter family member 1B3 (Homo sapiens, UniProt Q9NPD5) | % | 142.8
COc1ccc(-c2cc(=O)c3c(O)c(OC)c(OC)cc3o2)cc1O [EUPATORIN] | Solute carrier organic anion transporter family member 1B3 (Homo sapiens, UniProt Q9NPD5) | % | 72.8
C[C@]12CC[C@@H](O)C[C@H]1CCc1ccccc12 | Solute carrier organic anion transporter family member 1B3 (Homo sapiens, UniProt Q9NPD5) | % | 100.9
O=[N+]([O-])c1ccc(O)c([N+](=O)[O-])c1 [2,4-DINITROPHENOL] | Solute carrier organic anion transporter family member 1B3 (Homo sapiens, UniProt Q9NPD5) | % | 78.36
COc1ccc2c(c1)OCc1c-2oc2cc(OC)ccc12 [DEHYDROVARIABILIN] | Solute carrier organic anion transporter family member 1B3 (Homo sapiens, UniProt Q9NPD5) | % | 89.07
COS(C)(=O)=O [METHANESULFONIC ACID METHYL ESTER] | Solute carrier organic anion transporter family member 1B3 (Homo sapiens, UniProt Q9NPD5) | % | 79.48
NC1=NCCN1CC(=O)O [CYCLOCREATINE] | Solute carrier organic anion transporter family member 1B3 (Homo sapiens, UniProt Q9NPD5) | % | 127.5
CNC(=O)Oc1ccc2c(c1)[C@]1(C)CCN(C)[C@@H]1N2C.O=C(O)c1ccccc1O [PHYSOSTIGMINE SALICYLATE] | Solute carrier organic anion transporter family member 1B3 (Homo sapiens, UniProt Q9NPD5) | % | 110.8
COC(=O)NC(=S)Nc1ccccc1NC(=S)NC(=O)OC [THIOPHANATE METHYL] | Solute carrier organic anion transporter family member 1B3 (Homo sapiens, UniProt Q9NPD5) | % | 92.95
Cc1cccc(Nc2ccccc2C(=O)O)c1C [MEFENAMIC ACID] | Solute carrier organic anion transporter family member 1B3 (Homo sapiens, UniProt Q9NPD5) | % | 72.63
NNC(=O)c1ccncc1 [ISONIAZID] | Solute carrier organic anion transporter family member 1B3 (Homo sapiens, UniProt Q9NPD5) | % | 98.94
Cl.O=C(O)C1=CCCNC1 [GUVACINE HYDROCHLORIDE] | Solute carrier organic anion transporter family member 1B3 (Homo sapiens, UniProt Q9NPD5) | % | 108.7
COc1ccc(-c2cc(=O)c3ccccc3o2)cc1OC [3',4'-DIMETHOXYFLAVONE] | Solute carrier organic anion transporter family member 1B3 (Homo sapiens, UniProt Q9NPD5) | % | 129.7
O=C(CCc1ccc(O)cc1)c1c(O)cc(O)cc1O[C@@H]1O[C@H](CO)[C@@H](O)[C@H](O)[C@H]1O [PHLORIZIN] | Solute carrier organic anion transporter family member 1B3 (Homo sapiens, UniProt Q9NPD5) | % | 106.3
COc1ccc(OC)c(C(O)C(C)N)c1.Cl (stereo unspecified) [METHOXAMINE HYDROCHLORIDE] | Solute carrier organic anion transporter family member 1B3 (Homo sapiens, UniProt Q9NPD5) | % | 104.7
NC(C(=O)O)C(O)C(=O)O (racemic) [d,l-threo-3-HYDROXYASPARTIC ACID] | Solute carrier organic anion transporter family member 1B3 (Homo sapiens, UniProt Q9NPD5) | % | 82.91
Nc1nc(N)c2nc(-c3ccccc3)c(N)nc2n1 | Solute carrier organic anion transporter family member 1B3 (Homo sapiens, UniProt Q9NPD5) | % | 69.61
CC[C@@H](CO)NCCN[C@@H](CC)CO.Cl | Solute carrier organic anion transporter family member 1B3 (Homo sapiens, UniProt Q9NPD5) | % | 86.34
CO[C@H]1C=C[C@@]23c4cc5c(cc4CN(C[C@@H]2O)[C@H]3C1)OCO5 | Solute carrier organic anion transporter family member 1B3 (Homo sapiens, UniProt Q9NPD5) | % | 100.9196
N#C/C(=C\c1ccc(O)cc1)C(=O)O [alpha-CYANO-4-HYDROXYCINNAMIC ACID] | Solute carrier organic anion transporter family member 1B3 (Homo sapiens, UniProt Q9NPD5) | % | 105.3
C/C=C(\C)C(=O)O[C@H]1C[C@@H](OC(C)=O)[C@@]2(C(=O)OC)CO[C@H]3[C@@H](O)[C@@](C)([C@]45O[C@@]4(C)[C@@H]4C[C@H]5O[C@@H]5OC=C[C@@]54O)[C@H]4[C@]1(CO[C@]4(O)C(=O)OC)[C@@H]32 [AZADIRACHTIN A] | Solute carrier organic anion transporter family member 1B3 (Homo sapiens, UniProt Q9NPD5) | % | 74.42
CSCC[C@H](N)C(=O)N[C@@H](CC(C)C)C(=O)N[C@@H](Cc1ccccc1)C(=O)OC(C)=O | Solute carrier organic anion transporter family member 1B3 (Homo sapiens, UniProt Q9NPD5) | % | 94.57
C[C@@H]1O[C@@H](O[C@H]2C[C@@H](O)[C@]3(CO)[C@H]4[C@H](O)C[C@]5(C)[C@@H](C6=CC(=O)OC6)CC[C@]5(O)[C@@H]4CC[C@]3(O)C2)[C@H](O)[C@H](O)[C@H]1O [OUABAIN] | Solute carrier organic anion transporter family member 1B3 (Homo sapiens, UniProt Q9NPD5) | % | 98.13
CC(C)NCC(O)c1cc(O)cc(O)c1 (stereo unspecified) [METAPROTERENOL] | Solute carrier organic anion transporter family member 1B3 (Homo sapiens, UniProt Q9NPD5) | % | 111.7
COc1cc2c(cc1OC)[C@H](C)NCC2 [SALSOLIDINE] | Solute carrier organic anion transporter family member 1B3 (Homo sapiens, UniProt Q9NPD5) | % | 93.8
O=C1c2ccccc2C(=O)c2ccccc21 [ANTHRAQUINONE] | Solute carrier organic anion transporter family member 1B3 (Homo sapiens, UniProt Q9NPD5) | % | 78.8
C=CCc1ccc(O)c(OC)c1 [EUGENOL] | Solute carrier organic anion transporter family member 1B3 (Homo sapiens, UniProt Q9NPD5) | % | 104.3
CN1C(=O)CC[C@H]1c1cccnc1 [COTININE] | Solute carrier organic anion transporter family member 1B3 (Homo sapiens, UniProt Q9NPD5) | % | 103
CCCC(=O)Nc1ncnc2c1ncn2[C@@H]1O[C@@H]2COP(=O)(O)O[C@H]2[C@H]1OC(=O)CCC [BUCLADESINE] | Solute carrier organic anion transporter family member 1B3 (Homo sapiens, UniProt Q9NPD5) | % | 88.95
COc1ccc(C(Cl)=C(c2ccc(OC)cc2)c2ccc(OC)cc2)cc1 [CHLOROTRIANISENE] | Solute carrier organic anion transporter family member 1B3 (Homo sapiens, UniProt Q9NPD5) | % | 92.54
Nc1nc(=O)c2[nH]c(=O)cnc2[nH]1 [XANTHOPTERIN] | Solute carrier organic anion transporter family member 1B3 (Homo sapiens, UniProt Q9NPD5) | % | 104.7
O=C(O)c1ccccc1OP(=O)(O)O [FOSFOSAL] | Solute carrier organic anion transporter family member 1B3 (Homo sapiens, UniProt Q9NPD5) | % | 92.75
CO[C@@]1(NC(=O)CSCC#N)C(=O)N2C(C(=O)[O-])=C(CSc3nnnn3C)CS[C@@H]21.[Na+] [CEFMETAZOLE SODIUM] | Solute carrier organic anion transporter family member 1B3 (Homo sapiens, UniProt Q9NPD5) | % | 108.6
Nc1ccc(S(N)(=O)=O)cc1 [SULFANILAMIDE] | Solute carrier organic anion transporter family member 1B3 (Homo sapiens, UniProt Q9NPD5) | % | 155.8
CC(C)CCCCCOC(=O)COc1cc(Cl)c(Cl)cc1Cl | Solute carrier organic anion transporter family member 1B3 (Homo sapiens, UniProt Q9NPD5) | % | 93.76
CC(C)(C#N)O[C@@H]1O[C@H](CO)[C@@H](O)[C@H](O)[C@H]1O [LINAMARIN] | Solute carrier organic anion transporter family member 1B3 (Homo sapiens, UniProt Q9NPD5) | % | 97.67
